What protein stability index was measured for each of the following?
test: protein stability index of a GFP-peptide fusion (yeast GPS) (PSI 1-4); higher = more stable; sorted into four equal gates, so the index is relative within each strain; details: ubr1∆
Answers are plain numbers.

Some entries whose results are on file:
construct sequence	protein stability index
WDLQLQEKESQIQLAES [SMC4]	3.07
TIANSIILHFANFGEIL [YMR153W/NUP53]	2.27
LVALKRNADELSSYQKK [PRE5]	2.28
EKFSSFIESIVVDFKNK [SNF12]	2.77
TCAGGRLFNVVVQDSQT [SMC2]	2.76
RSCVSNSNENGTLERIK [RPN4]	2.95
SSKTSQPKPLFSFGKSD [YOR098C/NUP1]	2.16
VKLPRAFIDERASDLRM [RRP43]	1.69
IAKPNTANAKHTSSNSR [SMB1]	2.87
GPENALNVYHYFGENSS [YJL039C/NUP192]	2.65

Need protein stability index for each of these sequences.
1. NAASGSNSNVTNPSSIF [YOR098C/NUP1]
2. AAAFSQQQNASSKLYQM [GAL11]
3. SVFNAELLKLLNDEYNY [YCS4]

1: 2.73; 2: 3.25; 3: 2.47

I would be grateful if you could share the reported protein stability index for IDQDIHGIVFQHPFPLA [SSN2] .
2.64
